- tested.on: UniProt:P11511
- Sequence (P11511 whole entry): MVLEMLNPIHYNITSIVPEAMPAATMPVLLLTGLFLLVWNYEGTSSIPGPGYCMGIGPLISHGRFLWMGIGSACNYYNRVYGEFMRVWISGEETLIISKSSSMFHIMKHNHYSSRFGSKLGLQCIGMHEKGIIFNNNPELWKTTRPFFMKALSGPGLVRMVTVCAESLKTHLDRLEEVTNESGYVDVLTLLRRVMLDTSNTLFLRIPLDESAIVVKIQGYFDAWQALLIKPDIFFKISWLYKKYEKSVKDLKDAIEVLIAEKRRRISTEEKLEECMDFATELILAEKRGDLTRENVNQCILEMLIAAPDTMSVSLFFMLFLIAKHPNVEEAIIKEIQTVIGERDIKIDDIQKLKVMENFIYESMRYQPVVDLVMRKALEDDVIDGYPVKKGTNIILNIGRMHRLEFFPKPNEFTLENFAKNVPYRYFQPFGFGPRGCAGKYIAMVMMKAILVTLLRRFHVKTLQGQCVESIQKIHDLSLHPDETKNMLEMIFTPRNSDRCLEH
- test.name: The binding affinity was determined on Cytochrome P450 19A1 by analysis of Dixon plot
Recorded Ki, one value per entry.
measured.quantity: Ki (µM)

{"columns": ["molecule", "measured.quantity", "assay.value"],
 "data": [
  ["CC12CCC3C(C(=O)C=C4C=CCCC43C=O)C1CCC2=O (stereo unspecified)", "Ki", 1.8],
  ["CC12CCC3C(C(=O)C=C4C=CCCC43CO)C1CCC2=O (stereo unspecified)", "Ki", 15],
  ["CC12CCC3C(C(=O)C=C4CCCCC43CO)C1CCC2=O (stereo unspecified)", "Ki", 11],
  ["CC12CCC3C(C(=O)C=C4CCCCC43C=O)C1CCC2=O (stereo unspecified)", "Ki", 13],
  ["CC12CCC3C(C(=O)C=C4C=CCCC43C)C1CCC2=O (stereo unspecified)", "Ki", 0.22],
  ["CC12CCC3C(C(=O)C=C4CCCCC43CO)C1CCC2O (stereo unspecified)", "Ki", 45]
]}

----------
- tested.on: Aromatase (Homo sapiens)
- test.name: In vitro competitive inhibitory activity was measured on Cytochrome P450 19A1 of human placental microsomes
pIC50: −log10 of the molar value.
Below, each entry is listed alongside its reported pIC50.
measured.quantity: pIC50

{"columns": ["molecule", "measured.quantity", "assay.value"],
 "data": [
  ["CC12CCC3C(CC=C4CCCCC43C=O)C1CCC2=O (stereo unspecified)", "pIC50", 5.05],
  ["CC12CCC3C(C(=O)C=C4C=CCCC43C=O)C1CCC2=O (stereo unspecified)", "pIC50", 4.96],
  ["CC12CCC3C(C(=O)C=C4CCCCC43C=O)C1CCC2=O (stereo unspecified)", "pIC50", 4.22],
  ["CC12CCC3C(C(=O)C=C4CCCCC43C)C1CCC2=O (stereo unspecified)", "pIC50", 5.74],
  ["CC12CCC3C(C(=O)C=C4C=CCCC43CO)C1CCC2=O (stereo unspecified)", "pIC50", 4.22],
  ["CC12CCC3C4CCC=CC4=CC(=O)C3C1CCC2=O (stereo unspecified)", "pIC50", 4.48]
]}
